tested on: Nucleic Acid; experiment: Maximum Frel value for binding to 3'-Fl-AM1A-Rhd in Bacillus subtilis tyr
result-type: Frel
Quick one: just the number, no unit, thanks!

molecule: NCCC(O)C(=O)N[C@@H]1C[C@H](N)[C@@H](O[C@H]2O[C@H](CN)[C@@H](O)[C@H](O)[C@H]2O)[C@H](O)[C@H]1O[C@H]1O[C@H](CO)[C@@H](O)[C@H](N)[C@H]1O (single isomer, unassigned) [AMIKACIN]
target-entity: Nucleic Acid
measured-value: 0.29

molecule: NC[C@H]1O[C@H](O[C@H]2[C@H](O)[C@@H](O[C@H]3O[C@H](CO)[C@@H](O)[C@H](N)[C@H]3O)[C@H](N)C[C@@H]2N)[C@H](N)C[C@@H]1O [TOBRAMYCIN]
target-entity: Nucleic Acid
measured-value: 0.33

molecule: CN[C@@H]1[C@@H](O)[C@@H](O[C@@H]2[C@@H](O)[C@H](O[C@H]3O[C@H](C(C)N)CC[C@H]3N)[C@@H](N)C[C@H]2N)OC[C@]1(C)O (some centres undefined) [GENTAMICIN C2]
target-entity: Nucleic Acid
measured-value: 0.8

Alright, here's another molecule for you.
Indicate its recorded Frel; the molecule in question is NC[C@@H]1O[C@H](O[C@H]2[C@@H](O)[C@H](O[C@@H]3[C@@H](O)[C@H](N)C[C@H](N)[C@H]3O[C@H]3O[C@H](CO)[C@@H](O)[C@H](O)[C@H]3N)O[C@@H]2CO)[C@H](N)[C@@H](O)[C@@H]1O [PAROMOMYCIN] 0.41

Recorded values, source ChEMBL document CHEMBL1143547.
